METHOD DESCRIPTION: Restrictive medium S. cerevisiae growth inhibition, OD615, pilot screen of yeast lifespan reduction project, restrictive growth control (AID 706);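 also: modified DeaD lifespan yeast strain shifted to restrictive glucose medium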
TEST CONDITIONS: OD615, 48 h, at 10 µM, hits give high values
Please respond with reported growth inhibition for every item in the list.
API: value field is a number in %; no unit string.

// sample C=CCOC(=O)C1CC=CCC1C(=O)Oc1ccc(F)cc1F (configuration not stated) , its growth inhibition was -15.3

// sample `COc1ccc(OC)c2[nH]c(=O)c(CCNC(=O)c3cc4ccccc4o3)cc12` , its growth inhibition was -3.6

// sample `COC(=O)c1ccc(CSc2nc3c(c(=O)n2-c2ccc(Br)cc2)SCC3)o1` , its growth inhibition was -19.8

// sample `CC(=O)Nc1c(C(=O)c2ccc(F)cc2)oc2ccccc12` , its growth inhibition was -4.12

// sample `CCOc1ccc(N(CC(=O)NCCSc2ccccn2)S(C)(=O)=O)cc1` , its growth inhibition was 2.82

// sample `CCS(=O)(=O)NCCc1csc(-c2cccnc2)n1` , its growth inhibition was -6.54

// sample CC1CCCCN1Cc1nc2c(c(=O)n(C)c(=O)n2C)n1Cc1c(F)cccc1Cl (configuration not stated) , its growth inhibition was -6.45

// sample `CN1CCCCc2c1[nH]c1ccccc1c2=O` , its growth inhibition was 2.2

// sample `Cc1c(C(=O)N2CCCCC2)sc(N)c1C#N` , its growth inhibition was 4.32

// sample Oc1c(C(c2cccs2)N2CCN(c3cccc(Cl)c3)CC2)sc2ncnn12 (configuration not stated) , its growth inhibition was 5.16

// sample `CCOC(=O)C1CCN(C(=O)c2cn(C)c(=O)c3cc(OC)c(OC)cc23)CC1` , its growth inhibition was -10.2

// sample `CCOC(=O)CNS(=O)(=O)CCN1C(=O)c2ccccc2C1=O` , its growth inhibition was -4.12

// sample `CCS(=O)(=O)Nc1ccc(-c2ccc(NS(=O)(=O)CC)c(OC)c2)cc1OC` , its growth inhibition was -1.95

// sample CC(Sc1nc2c(c(=O)n(C)c(=O)n2C)n1Cc1cc2c(cc1Cl)OCO2)C(=O)O (configuration not stated) , its growth inhibition was -5.16

// sample CC1CCCN(c2nc3c(c(=O)n(C)c(=O)n3C)n2Cc2ccccc2)C1 (configuration not stated) , its growth inhibition was -3.24

// sample `Cc1ccc(S(=O)(=O)N2CCN(C(=O)CN3CCCC3)C2)cc1` , its growth inhibition was -11.2

// sample `COc1ccc(NC(=O)C2CCN(S(=O)(=O)c3cccc4cccnc34)CC2)cc1OC` , its growth inhibition was 0.21

// sample `CCOc1ccccc1NC(=O)CSc1nnc(-c2cnccn2)n1C` , its growth inhibition was -1.53

// sample `CCCC(=O)Nc1nc2c(OC)ccc(OC)c2s1` , its growth inhibition was -5.13

// sample `COc1ccc2c(c1)[nH]c1c(N3CCN(Cc4ccc5c(c4)OCO5)CC3)ncnc12` , its growth inhibition was -18.4

// sample CC1CC(C(O)c2ccccn2)C(=O)C(C(O)c2ccccn2)C1 (configuration not stated) , its growth inhibition was -1.25

// sample Oc1c(C(c2cccs2)N2CCN(c3ccccc3)CC2)sc2ncnn12 (configuration not stated) , its growth inhibition was -5.4
